target: human PAD4 (hPAD4) (Homo sapiens, UniProt Q9UM07); test: RFMS Human PAD4 Functional Assay; assay type: biochemical; conditions: hPAD4 RFMS IC50, human PAD4, rapid-fire mass spectrum (RFMS) assay; 5 nM hPAD4, 250 μM BAEE
Sequence (Q9UM07 whole entry): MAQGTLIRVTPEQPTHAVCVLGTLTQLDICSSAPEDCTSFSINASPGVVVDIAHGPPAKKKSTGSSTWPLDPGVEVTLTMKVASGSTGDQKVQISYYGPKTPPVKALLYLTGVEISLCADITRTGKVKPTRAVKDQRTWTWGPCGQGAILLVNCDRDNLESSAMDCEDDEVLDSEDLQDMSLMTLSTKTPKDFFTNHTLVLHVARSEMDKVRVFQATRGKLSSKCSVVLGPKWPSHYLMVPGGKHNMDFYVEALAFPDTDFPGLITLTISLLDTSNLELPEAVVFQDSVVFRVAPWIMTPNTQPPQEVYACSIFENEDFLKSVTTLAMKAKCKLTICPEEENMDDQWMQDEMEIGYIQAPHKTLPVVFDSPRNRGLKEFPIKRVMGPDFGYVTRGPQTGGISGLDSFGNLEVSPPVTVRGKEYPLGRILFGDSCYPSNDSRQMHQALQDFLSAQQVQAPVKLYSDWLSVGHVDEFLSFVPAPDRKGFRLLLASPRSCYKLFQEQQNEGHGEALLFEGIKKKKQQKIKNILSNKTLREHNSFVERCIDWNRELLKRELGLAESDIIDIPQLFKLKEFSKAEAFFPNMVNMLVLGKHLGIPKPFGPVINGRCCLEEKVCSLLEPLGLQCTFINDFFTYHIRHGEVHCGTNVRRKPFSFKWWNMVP
OBSERVABLE: pIC50
Give bare numbers, as −log10 of the molar value.

Worked examples, 2 compounds total:
- STRUCTURE AS SMILES: "COc1cc(C(=O)N2C[C@H]3CC[C@@H]2[C@@H]3N)cc2nc(-c3cc4cccc(C5CN(C(=O)C(C)(C)C)C5)c4n3CC3CC3)n(C)c12"
  TESTED TARGET: "human PAD4 (hPAD4) (Homo sapiens, UniProt Q9UM07)"
  RECORDED NUMBER: 6.72
- STRUCTURE AS SMILES: "COC(=O)N1CC(c2cccc3cc(-c4nc5cc(C(=O)N6C[C@H](N)C[C@@H](F)C6)cc(OC)c5n4Cc4cnn(C)c4)n(CC4CC4)c23)C1"
  TESTED TARGET: "human PAD4 (hPAD4) (Homo sapiens, UniProt Q9UM07)"
  RECORDED NUMBER: 7.59

# input Quick one: pIC50 for COc1cc(C(=O)N2C[C@H]3CC[C@@H]2[C@@H]3N)cc2nc(-c3cc4cccc(C5CN(C(=O)C(C)(C)O)C5)c4n3CC3CC3)n(C)c12 ?
# output 7.30
